Test system: DMS-273
Assay: NCI tumour cell line growth inhibition, 48 h
Activity calls are given as the source filed them. Rule as the data show it: active = GI50 up to about 1.1 µM and inactive = higher.
readout: GI50

CCOc1ccccc1NC(=O)C(=O)CC(=O)C1=C(C)Nc2ccccc2S1 ... > 100 µM (inactive)

Incoming: Given the entry CC1=CC(=O)NCCN1C , report its measured GI50.
Outgoing: > 100 µM (inactive)

Incoming: Given the entry O=c1c([Se]c2coc3ccccc3c2=O)coc2ccccc12 , report its measured GI50.
Outgoing: 11 µM (inactive)

Incoming: Given the entry CCC(=O)OC1CCn2c1nc1c2C(=O)C(C)=C(NC(C)=O)C1=O (stereo unspecified) , report its measured GI50.
Outgoing: 1.79 µM (inactive)

Incoming: Given the entry CC1=C2C3OC(=O)C(C)C3C(O)C[C@@]2(C)C(=O)CC1 (stereo partly specified) , report its measured GI50.
Outgoing: > 100 µM (inactive)

* * *

Tested on: HCT-116
Assay: NCI tumour cell line growth inhibition, 48 h
Activity calls are given as the source filed them. No stated cut-off is given here; in the data, active = GI50 up to about 1.1 µM and inactive = higher.
readout: GI50

Worked cases, answers included:
Nc1ccc(C(=O)Nn2c(-c3ccccc3)nc3ccccc3c2=O)cc1 ... > 100 µM (inactive)
Cc1c(C)c2ccc3oc4ccccc4c3c2oc1=O ... 96.4 µM (inactive)
COc1cccc(-c2[nH]c3cc4c(cc3c(=O)c2C(=O)O)OCO4)c1 ... 32.8 µM (inactive)

Incoming: Short answer please: GI50, HCT-116, entry O=C(CCc1ccc(O)c(O)c1)OCCc1ccccc1
Outgoing: 44.6 µM (inactive)

Incoming: Short answer please: GI50, HCT-116, entry CCOC(=O)c1cc(-c2ccc(-c3cc(C(=O)OCC)c(C#N)c(N)c3C#N)cc2)c(C#N)c(N)c1C#N
Outgoing: > 100 µM (inactive)

Incoming: Short answer please: GI50, HCT-116, entry CC1=Nc2ccccc2C12C(c1ccccc1)C(c1ccccc1)C(=O)N1c3ccccc3CC12 (stereo not given)
Outgoing: > 100 µM (inactive)

Incoming: Short answer please: GI50, HCT-116, entry O=C1/C(=C/c2ccccc2)CN(C(=O)C(Cl)(Cl)Cl)C/C1=C\c1ccccc1
Outgoing: 0.356 µM (active)

Incoming: Short answer please: GI50, HCT-116, entry CC(C)N1CCN(c2ccncc2S(=O)(=O)N2CCCCC2)CC1
Outgoing: > 100 µM (inactive)

Incoming: Short answer please: GI50, HCT-116, entry COc1ccc(-c2c3c([nH]c(=S)c2C#N)CC(C)(C)CC3=O)cc1
Outgoing: > 100 µM (inactive)

Incoming: Short answer please: GI50, HCT-116, entry CO[C@H](C(=O)O[C@H]1C(=O)N2CCC3CCC1C32C)c1ccccc1 (stereo not given in full)
Outgoing: > 100 µM (inactive)

* * *

Catalogue of GI50 readings, one per entry.
Tested on: Malme-3M
Test: NCI tumour cell line growth inhibition, 48 h
Calls of active or inactive are those of the source. Rule as the data show it: active = GI50 up to about 1.1 µM and inactive = higher.

COC1=C(Br)[C@H](O)[C@@]2(C=C1Br)CC(C(=O)NCCCOc1c(Br)cc(C(O)CNC(C)=O)cc1Br)=NO2 (some centres undefined) ... 6.03 µM (inactive)
CC(=O)Oc1c2c(c(OC(C)=O)c3c1n(C(C)=O)c1ccccc1n3C(C)=O)n(C(C)=O)c1ccccc1n2C(C)=O ... 2.38 µM (inactive)
O=C(NO)c1cccc(OCc2ccc(Br)cc2)c1 ... 2.37 µM (inactive)
CCC(=O)OC1CCn2c1nc1c2C(=O)C(C)=C(NC(C)=O)C1=O (centres undefined) ... 1.61 µM (inactive)
CC(C)N(C(=O)C12C3C4C5C3C1(C#N)C5C42)C(C)C (centres undefined) ... > 100 µM (inactive)
CN(C)C(=S)N=C(Nc1ccccc1)Nc1ccccc1 ... > 100 µM (inactive)
CC(N)CC(=O)O (centres undefined) ... > 5000 µM (inactive)
Cc1ccc2c(c1)CC1(C2)Cc2ccc(C)cc2C1=O (centres undefined) ... 12.5 µM (inactive)

Incoming: Given the entry CN(COC(=O)C(C)(C)C)c1nc(N(C)COC(=O)C(C)(C)C)nc(N(C)COC(=O)C(C)(C)C)n1 , report its measured GI50.
Outgoing: 12.7 µM (inactive)
